biological target: PGR (gene 5241); assay: NVS_NR_hPR: NovaScreen (NVS) Nuclear Receptor Binding Assay for human Progestron Receptor (PR) (AID 2283360);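 note: active means loss of bound radioligand signal versus DMSO baseline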
Results filed as inconclusive are left out. Calls of active or inactive are those of the source. Rule for the calls: active = hit-call score of the fitted dose curve at least 0.9, where 1 is the maximum; inconclusive = response in the unintended direction; inactive = score below 0.9.
Measure: AC50

O=C(c1ccc(O)cc1O)c1ccc(O)cc1O	11.2 µM (active)
CCCN(CCC)C(=O)SCC	inactive
N#CSCSc1nc2ccccc2s1	inactive
CC1(C)C(C=C(Cl)Cl)C1C(=O)OCc1cccc(Oc2ccccc2)c1 (configuration not stated)	inactive
O=C(O)C1(C(=O)Nc2ccc(Cl)cc2Cl)CC1	inactive
CCCCOCCOCCOCc1cc2c(cc1CCC)OCO2	inactive
C[C@]12C[C@H](O)[C@H]3[C@@H](CCC4=CC(=O)CC[C@@]43C)[C@@H]1CC[C@@H]2C(=O)CO	0.403 µM (active)

// provenance: PubChem BioAssay (EPA / NIEHS)
